# measurement-target: UniProtKB P10275
# Sequence (P10275 whole entry): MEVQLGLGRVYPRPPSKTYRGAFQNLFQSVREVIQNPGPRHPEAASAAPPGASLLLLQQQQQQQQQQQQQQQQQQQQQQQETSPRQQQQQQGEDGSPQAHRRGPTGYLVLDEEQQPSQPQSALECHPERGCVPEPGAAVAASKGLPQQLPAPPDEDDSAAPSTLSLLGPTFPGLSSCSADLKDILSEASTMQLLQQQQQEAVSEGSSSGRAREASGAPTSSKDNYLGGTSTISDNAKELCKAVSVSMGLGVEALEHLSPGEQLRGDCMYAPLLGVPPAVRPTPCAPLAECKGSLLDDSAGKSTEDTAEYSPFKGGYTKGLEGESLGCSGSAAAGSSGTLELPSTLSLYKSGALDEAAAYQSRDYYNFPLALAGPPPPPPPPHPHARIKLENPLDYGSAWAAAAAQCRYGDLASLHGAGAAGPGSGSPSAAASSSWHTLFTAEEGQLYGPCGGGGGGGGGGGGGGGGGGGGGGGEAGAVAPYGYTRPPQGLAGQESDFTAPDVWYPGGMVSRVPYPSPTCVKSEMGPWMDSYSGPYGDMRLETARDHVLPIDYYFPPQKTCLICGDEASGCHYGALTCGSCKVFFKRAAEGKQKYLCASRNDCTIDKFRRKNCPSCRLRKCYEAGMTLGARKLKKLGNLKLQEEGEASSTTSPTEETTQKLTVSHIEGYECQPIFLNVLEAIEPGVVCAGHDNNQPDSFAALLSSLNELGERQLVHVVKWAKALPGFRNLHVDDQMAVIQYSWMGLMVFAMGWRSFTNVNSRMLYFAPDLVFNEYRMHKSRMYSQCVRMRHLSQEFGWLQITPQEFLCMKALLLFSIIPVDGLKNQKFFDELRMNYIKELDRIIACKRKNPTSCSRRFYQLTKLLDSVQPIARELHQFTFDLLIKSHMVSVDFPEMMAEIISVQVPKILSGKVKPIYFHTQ
# assay-notes: Inhibition of androgen receptor in human VCaP cells expressing GRE-2-TATA-Luc co-expressing firefly luciferase incubated for 24 hrs in presence of DHT by luciferase reporter gene assay
measured-property: pIC50
# reply with the number alone; pIC50 is -log10 of concentration in mol/L

**Query** Answer with reported pIC50 of "CSc1ccc(C(N)=O)cc1-c1ccc2cnccc2c1"
**Result** 6.10
